biological target: recombinant perforin (UniProt P10820); format: cell-based; conditions: read-out: Jurkat IC50; recombinant perforin pre-incubated 30 min with compound; 51Cr-labelled Jurkat cells, 0.1% BSA, 37° C. 4 hours
Sequence (P10820 whole entry): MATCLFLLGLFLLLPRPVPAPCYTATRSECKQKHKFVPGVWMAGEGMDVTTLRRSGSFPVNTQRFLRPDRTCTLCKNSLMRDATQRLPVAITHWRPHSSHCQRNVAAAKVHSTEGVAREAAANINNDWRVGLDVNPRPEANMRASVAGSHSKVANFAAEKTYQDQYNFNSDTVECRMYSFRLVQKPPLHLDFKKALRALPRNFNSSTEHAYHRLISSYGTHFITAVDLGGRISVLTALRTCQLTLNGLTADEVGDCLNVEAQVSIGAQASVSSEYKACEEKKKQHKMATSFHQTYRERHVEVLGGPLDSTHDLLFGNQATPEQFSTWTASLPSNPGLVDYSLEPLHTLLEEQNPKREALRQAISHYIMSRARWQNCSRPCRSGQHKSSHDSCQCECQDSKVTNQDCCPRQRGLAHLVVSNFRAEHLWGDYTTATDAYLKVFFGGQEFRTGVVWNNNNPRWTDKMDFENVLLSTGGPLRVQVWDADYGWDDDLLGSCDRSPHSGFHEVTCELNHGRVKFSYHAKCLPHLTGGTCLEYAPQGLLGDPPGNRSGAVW
Property: pIC50
pIC50 field: float, defined as -log10 of concentration (mol/L).

Some solved cases for reference:
O=C1NC(=S)N/C1=C/c1ccc(-c2cccnc2)s1 = 4.89
O=C1NC(=O)/C(=C\c2ccc(-c3ccc4c(c3)CNC4=O)s2)N1 = 6.40
COC(=O)c1ccc(-c2ccc(/C=C3/NC(=S)NC3=O)s2)cc1 = 5.79

Noted for CC(=O)c1ccc(-c2ccc(/C=C3/NC(=S)NC3=O)s2)cc1 : its pIC50 reads 5.78

Noted for O=C1NC(=S)N/C1=C\c1nc(-c2ccc3c(c2)COC3=O)cs1 : its pIC50 reads 5.85
